Known Hemolysis (%) at 125 µM of a selection of molecules
Tested on: erythrocyte suspensions of human blood
Experiment: Hemolytic activity, hemoglobin release
Assay type: cell-based
Conditions: peptide 125 μM (table prints 125 µM); human blood erythrocytes 5% v/v; absorbance 540 nm; percentage compared to melittin; three replicates
Peptide text beside a SMILES is read from it.
Observable: Hemolysis (%) at 125 µM

molecule="CC(C)C[C@@H]1NC(=O)[C@H](CCCCN)NC(=O)[C@H](CC(C)C)NC(=O)[C@H](CC(C)C)NC(=O)[C@H](CCC(N)=O)NC(=O)[C@H](CC(C)C)NC(=O)[C@H](CCCCN)NC(=O)[C@H](CCCCN)NC(=O)[C@H](Cc2c[nH]c3ccccc23)NC(=O)[C@H](CCCCN)NC1=O [BPC196W, c(LLKLKWKKLQ)] (cyclo(KKLQLLKLKW))" observable="Hemolysis (%) at 125 µM" recorded_result=3%
molecule="CC(C)C[C@@H]1NC(=O)[C@H](CCC(N)=O)NC(=O)[C@H](CC(C)C)NC(=O)[C@H](CC(C)C)NC(=O)[C@H](CCCCN)NC(=O)[C@H](Cc2c[nH]c3ccccc23)NC(=O)[C@H](CCCCN)NC(=O)[C@H](CCCCN)NC(=O)[C@H](CCCCN)NC(=O)[C@H](CCCCN)NC1=O [BPC068W, c(LKKKKWKLLQ)] (cyclo(KKKKWKLLQL))" observable="Hemolysis (%) at 125 µM" recorded_result=7%
molecule="CC(C)C[C@@H]1NC(=O)[C@H](CCCCN)NC(=O)[C@H](CC(C)C)NC(=O)[C@H](CC(C)C)NC(=O)[C@H](CCC(N)=O)NC(=O)[C@H](CCCCN)NC(=O)[C@H](CCCCN)NC(=O)[C@H](CCCCN)NC(=O)[C@H](Cc2c[nH]c3ccccc23)NC(=O)[C@H](CCCCN)NC1=O [BPC164W, c(LLKLKWKKKQ)] (cyclo(KKKQLLKLKW))" observable="Hemolysis (%) at 125 µM" recorded_result=6%
molecule="CC(C)C[C@@H]1NC(=O)[C@H](CCCCN)NC(=O)[C@H](CCCCN)NC(=O)[C@H](Cc2c[nH]c3ccccc23)NC(=O)[C@H](CCCCN)NC(=O)[C@H](CC(C)C)NC(=O)[C@H](CCCCN)NC(=O)[C@H](CCCCN)NC(=O)[C@H](CCCCN)NC(=O)[C@H](CCC(N)=O)NC1=O [BPC186W, c(KKKLKWKKLQ)] (cyclo(KKKLKWKKLQ))" observable="Hemolysis (%) at 125 µM" recorded_result=1%

###

Known Hemolysis (%) at 50 µM of a selection of compounds
System: erythrocyte suspensions of human blood
Experiment: Hemolytic activity, hemoglobin release
Assay type: cell-based
Settings: peptide 50 μM (table prints 50 µM); human blood erythrocytes 5% v/v; absorbance 540 nm; percentage compared to melittin; three replicates
Peptide text beside a SMILES is read from it.
Observable: Hemolysis (%) at 50 µM

compound="CC(C)C[C@@H]1NC(=O)[C@H](CCCCN)NC(=O)[C@H](CCCCN)NC(=O)[C@H](CCC(N)=O)NC(=O)[C@H](CC(C)C)NC(=O)[C@H](CCCCN)NC(=O)[C@H](CCCCN)NC(=O)[C@H](Cc2c[nH]c3ccccc23)NC(=O)[C@H](CCCCN)NC(=O)[C@H](CCCCN)NC1=O [BPC194W, c(KKLKKWKKLQ)] (cyclo(KKLKKWKKLQ))" observable="Hemolysis (%) at 50 µM" recorded_result=3%
compound="CC(C)C[C@@H]1NC(=O)[C@H](CCCCN)NC(=O)[C@H](Cc2c[nH]c3ccccc23)NC(=O)[C@H](CCCCN)NC(=O)[C@H](CC(C)C)NC(=O)[C@H](CC(C)C)NC(=O)[C@H](CCCCN)NC(=O)[C@H](CCCCN)NC(=O)[C@H](CCC(N)=O)NC(=O)[C@H](CCCCN)NC1=O [BPC118W, c(KKLLKWKLKQ)] (cyclo(KKLLKWKLKQ))" observable="Hemolysis (%) at 50 µM" recorded_result=4%
